As an illustration, consider measured AC50 for compounds on UniProt P08684.
Sequence (P08684 whole entry): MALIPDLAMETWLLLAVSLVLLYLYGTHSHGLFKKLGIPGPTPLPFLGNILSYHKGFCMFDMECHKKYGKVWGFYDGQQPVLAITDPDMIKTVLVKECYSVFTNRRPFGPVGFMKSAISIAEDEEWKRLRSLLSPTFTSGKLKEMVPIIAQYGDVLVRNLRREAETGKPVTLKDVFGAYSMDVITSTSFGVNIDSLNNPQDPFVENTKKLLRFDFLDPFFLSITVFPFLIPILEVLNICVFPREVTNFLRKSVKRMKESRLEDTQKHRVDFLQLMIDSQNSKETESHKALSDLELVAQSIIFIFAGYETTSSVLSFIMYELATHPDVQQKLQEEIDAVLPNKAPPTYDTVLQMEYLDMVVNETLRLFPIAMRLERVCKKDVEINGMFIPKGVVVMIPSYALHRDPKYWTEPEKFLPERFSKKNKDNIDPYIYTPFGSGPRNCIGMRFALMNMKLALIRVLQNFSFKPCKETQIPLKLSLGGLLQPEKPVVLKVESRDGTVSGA

>  <compound>
O=S(=O)(N=C(Nc1ccccn1)c1ccccc1)c1ccccc1

>  <AC50>
28.2 µM (inconclusive)

$$$$
>  <compound>
COc1ccccc1CN1CCCC2(CCN(C(=O)c3c(C)noc3C)CC2)C1

>  <AC50>
10 µM (inconclusive)

$$$$
>  <compound>
CCN(CC)c1ccc(NC(=O)CN2CCN(c3ccccc3F)CC2)cc1

>  <AC50>
15.8 µM (inconclusive)

$$$$
>  <compound>
COc1ccc(N2CCN(C(S)=Nc3cc(C)ccc3C)CC2)cc1

>  <AC50>
3.16 µM (inconclusive)

$$$$
>  <compound>
Cc1cc(C2C(C#N)=C(N)Oc3[nH]nc(C)c32)c(C)s1 (stereo not given)

>  <AC50>
7.08 µM (inconclusive)

$$$$

Batch lookup, AC50 per entry.
1. O=c1cnc2cncnc2n1Cc1ccc(F)cc1
2. CCN1CN=C(S)N(c2cc(C)ccc2C)C1
3. CCOc1ccc(OCCOCCN2CCc3ccccc3C2)cc1

["20 µM (inconclusive)", "20 µM (inconclusive)", "25.1 µM (inconclusive)"]

Hello, I would appreciate it if you could give AC50 for each entry below.
1. COC(=O)[C@@]1(Cc2ccccc2)[C@H]2c3cc(C(=O)N4CCCC4)n(CCN4CNCC4=O)c3C[C@H]2CN1C(=O)c1ccccc1
2. N#Cc1cccc(NC(=O)N2CC[C@@]3(CCCN(C(=O)Oc4ccccc4)C3)C2)c1

["1.58 µM (inconclusive)", "2.51 µM (inconclusive)"]
